Cited source for all entries: patent US10793547B2

study-target: F508del-CFTR (Homo sapiens, UniProt P13569, DEL508-508)
Construct: expressed in transfected cells
Sequence (P13569 with tags, fused parts or gaps DEL508-508): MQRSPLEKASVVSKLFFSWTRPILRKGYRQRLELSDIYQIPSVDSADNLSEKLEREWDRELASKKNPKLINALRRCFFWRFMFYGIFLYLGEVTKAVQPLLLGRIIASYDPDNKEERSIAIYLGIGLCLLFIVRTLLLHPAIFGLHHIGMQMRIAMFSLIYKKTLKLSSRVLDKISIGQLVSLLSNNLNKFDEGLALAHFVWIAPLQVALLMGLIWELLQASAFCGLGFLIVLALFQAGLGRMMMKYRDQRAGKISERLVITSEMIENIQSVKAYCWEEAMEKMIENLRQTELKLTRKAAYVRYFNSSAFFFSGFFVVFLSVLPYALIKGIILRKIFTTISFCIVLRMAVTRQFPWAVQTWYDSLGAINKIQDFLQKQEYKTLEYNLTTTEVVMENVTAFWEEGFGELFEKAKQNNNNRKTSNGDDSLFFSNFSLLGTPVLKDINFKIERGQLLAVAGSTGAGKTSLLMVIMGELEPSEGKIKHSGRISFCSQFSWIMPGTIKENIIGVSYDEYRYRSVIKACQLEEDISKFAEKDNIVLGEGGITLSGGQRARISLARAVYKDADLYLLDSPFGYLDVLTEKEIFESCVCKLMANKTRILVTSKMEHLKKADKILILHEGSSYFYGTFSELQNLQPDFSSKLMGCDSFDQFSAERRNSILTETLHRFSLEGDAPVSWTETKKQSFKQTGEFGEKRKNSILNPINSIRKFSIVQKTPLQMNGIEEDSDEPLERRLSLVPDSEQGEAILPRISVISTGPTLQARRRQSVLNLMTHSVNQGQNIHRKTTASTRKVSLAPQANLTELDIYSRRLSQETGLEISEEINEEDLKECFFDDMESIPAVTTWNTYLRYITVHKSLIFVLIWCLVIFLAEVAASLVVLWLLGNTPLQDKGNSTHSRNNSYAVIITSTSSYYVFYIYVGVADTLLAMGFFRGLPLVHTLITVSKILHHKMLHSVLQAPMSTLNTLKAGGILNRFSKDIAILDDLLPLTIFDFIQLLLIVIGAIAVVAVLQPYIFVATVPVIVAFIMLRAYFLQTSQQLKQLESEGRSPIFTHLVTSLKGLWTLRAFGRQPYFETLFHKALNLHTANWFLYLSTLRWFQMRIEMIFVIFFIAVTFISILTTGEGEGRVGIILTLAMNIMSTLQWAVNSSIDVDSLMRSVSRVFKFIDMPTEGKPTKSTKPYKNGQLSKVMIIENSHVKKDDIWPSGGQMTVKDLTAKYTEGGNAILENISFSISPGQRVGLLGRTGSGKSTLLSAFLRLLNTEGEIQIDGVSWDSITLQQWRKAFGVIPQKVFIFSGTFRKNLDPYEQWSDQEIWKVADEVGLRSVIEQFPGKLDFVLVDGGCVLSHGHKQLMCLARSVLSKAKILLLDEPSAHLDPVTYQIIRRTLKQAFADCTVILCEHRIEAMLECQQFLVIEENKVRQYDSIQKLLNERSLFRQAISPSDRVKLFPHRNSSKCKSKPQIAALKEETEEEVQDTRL
assay-notes: Membrane potential optical (FLIPR) assay for F508del-CFTR modulators in NIH 3T3 cells
Format: cell-based
assay-setup: NIH 3T3 cells expressing F508del; assay A1; read-out: CFTRdF508 Cor 3T3 FLIPR 384 CFTRdF508 MP 3T3 770 EC50
quantity-name: EC50 (nM)

[[record]]
molecule = "CCn1cc(S(=O)(=O)NC(=O)c2ccc(-n3ccc(OCC4(C(F)(F)F)CC4)n3)nc2N2C[C@@H](C)CC2(C)C)cn1"
study_target = "F508del-CFTR (Homo sapiens, UniProt P13569, DEL508-508)"
quantity_name = "EC50"
value = 650

[[record]]
molecule = "Cc1nn(C)cc1S(=O)(=O)NC(=O)c1ccc(-n2ccc(OCCC(C3CC3)C3CC3)n2)nc1N1C[C@@H](C)CC1(C)C"
study_target = "F508del-CFTR (Homo sapiens, UniProt P13569, DEL508-508)"
quantity_name = "EC50"
value = 110

[[record]]
molecule = "Cc1nn(C)cc1S(=O)(=O)NC(=O)c1ccc(-n2ccc(OCC3(C(F)(F)F)CC3)n2)nc1N1CC(C)CC12CCC2 (stereo not shown)"
study_target = "F508del-CFTR (Homo sapiens, UniProt P13569, DEL508-508)"
quantity_name = "EC50"
value = 220

[[record]]
molecule = "C[C@H]1CC(C)(C)N2c3nc(-n4ccc(OCC(C)(C)C(F)(F)F)n4)ccc3C(=O)OC12 (stereo partly shown)"
study_target = "F508del-CFTR (Homo sapiens, UniProt P13569, DEL508-508)"
quantity_name = "EC50"
value = 30000

[[record]]
molecule = "Cc1nn(C)c(C)c1S(=O)(=O)NC(=O)c1ccc(-n2ccc(OCCC3(C(F)(F)F)CC3)n2)nc1N1C[C@@H](C)CC1(C)C"
study_target = "F508del-CFTR (Homo sapiens, UniProt P13569, DEL508-508)"
quantity_name = "EC50"
value = 170

[[record]]
molecule = "Cc1nn(C)cc1S(=O)(=O)NC(=O)c1ccc(-n2ccc(OCC3(C(F)(F)F)CC3)n2)nc1N1CC(C)CC1(C)C (stereo not shown)"
study_target = "F508del-CFTR (Homo sapiens, UniProt P13569, DEL508-508)"
quantity_name = "EC50"
value = 610

[[record]]
molecule = "C[C@@H]1CN(c2nc(-n3ccc(OCC4(C(F)(F)F)CC4)n3)ccc2C(=O)NS(=O)(=O)c2cnn(C)c2)C(C)(C)C1"
study_target = "F508del-CFTR (Homo sapiens, UniProt P13569, DEL508-508)"
quantity_name = "EC50"
value = 300

[[record]]
molecule = "C[C@@H]1CN(c2nc(-n3ccc(OCC4CCC4)n3)ccc2C(=O)NS(=O)(=O)c2cccnc2N)C(C)(C)C1 [D, reference compound]"
study_target = "F508del-CFTR (Homo sapiens, UniProt P13569, DEL508-508)"
quantity_name = "EC50"
value = 210

[[record]]
molecule = "Cc1c(S(=O)(=O)NC(=O)c2ccc(-n3ccc(OCC(C4CC4)C4CC4)n3)nc2N2C[C@@H](C)CC2(C)C)cnn1C"
study_target = "F508del-CFTR (Homo sapiens, UniProt P13569, DEL508-508)"
quantity_name = "EC50"
value = 370

[[record]]
molecule = "Cc1nn(C)cc1S(=O)(=O)NC(=O)c1ccc(-n2ccc(OC3CC3C(F)(F)F)n2)nc1N1C[C@@H](C)CC1(C)C (stereo partly shown) [Compound 35]"
study_target = "F508del-CFTR (Homo sapiens, UniProt P13569, DEL508-508)"
quantity_name = "EC50"
value = 1400

[[record]]
molecule = "Cc1nn(C)c(C)c1S(=O)(=O)NC(=O)c1ccc(-n2ccc(OCC(C)(C)C(F)(F)F)n2)nc1N1C[C@@H](C)CC1(C)C"
study_target = "F508del-CFTR (Homo sapiens, UniProt P13569, DEL508-508)"
quantity_name = "EC50"
value = 170

[[record]]
molecule = "Cc1nn(C)cc1S(=O)(=O)NC(=O)c1ccc(-n2ccc(OCCC3(C(F)(F)F)CC3)n2)nc1N1C[C@@H](C)CC1(C)C"
study_target = "F508del-CFTR (Homo sapiens, UniProt P13569, DEL508-508)"
quantity_name = "EC50"
value = 130

[[record]]
molecule = "Cc1nn(C)cc1S(=O)(=O)NC(=O)c1ccc(-n2ccc(OCC3C4CCC3CC4)n2)nc1N1C[C@@H](C)CC1(C)C (stereo partly shown)"
study_target = "F508del-CFTR (Homo sapiens, UniProt P13569, DEL508-508)"
quantity_name = "EC50"
value = 170

[[record]]
molecule = "Cc1nn(C)cc1S(=O)(=O)NC(=O)c1ccc(-n2ccc(OCC3(C(F)(F)F)CC3)n2)nc1N1CC(C(C)(C)C)CC1(C)C (racemic) [Compound 40]"
study_target = "F508del-CFTR (Homo sapiens, UniProt P13569, DEL508-508)"
quantity_name = "EC50"
value = 80

[[record]]
molecule = "[2H]C([2H])([2H])[C@@H]1CN(c2nc(-n3ccc(OCC(C)(C)C(F)(F)F)n3)ccc2C(=O)NS(=O)(=O)c2cn(C)nc2C)C(C)(C)C1([2H])[2H]"
study_target = "F508del-CFTR (Homo sapiens, UniProt P13569, DEL508-508)"
quantity_name = "EC50"
value = 110

[[record]]
molecule = "C[C@@H]1CN(c2nc(-n3ccc(OCC(C)(C)C)n3)ccc2C(=O)NS(=O)(=O)c2ccc[nH]c2=O)C(C)(C)C1 [B, reference compound]"
study_target = "F508del-CFTR (Homo sapiens, UniProt P13569, DEL508-508)"
quantity_name = "EC50"
value = 260

[[record]]
molecule = "Cc1nn(C)cc1S(=O)(=O)NC(=O)c1ccc(-n2ccc(OCC3C(C)(C)C3(C)C)n2)nc1N1C[C@@H](C)CC1(C)C"
study_target = "F508del-CFTR (Homo sapiens, UniProt P13569, DEL508-508)"
quantity_name = "EC50"
value = 170

[[record]]
molecule = "C[C@@H]1CN(c2nc(-n3ccc(OCC(C)(C)C(F)(F)F)n3)ccc2C(=O)NS(=O)(=O)c2cn(C)nc2CO)C(C)(C)C1"
study_target = "F508del-CFTR (Homo sapiens, UniProt P13569, DEL508-508)"
quantity_name = "EC50"
value = 460

[[record]]
molecule = "Cc1nn(C)cc1S(=O)(=O)NC(=O)c1ccc(-n2ccc(OC(C3CC3)C3CC3)n2)nc1N1C[C@@H](C)CC1(C)C"
study_target = "F508del-CFTR (Homo sapiens, UniProt P13569, DEL508-508)"
quantity_name = "EC50"
value = 1000

[[record]]
molecule = "Cc1c(S(=O)(=O)NC(=O)c2ccc(-n3ccc(OCCC4(C(F)(F)F)CC4)n3)nc2N2C[C@@H](C)CC2(C)C)cnn1C"
study_target = "F508del-CFTR (Homo sapiens, UniProt P13569, DEL508-508)"
quantity_name = "EC50"
value = 280

[[record]]
molecule = "Cc1nn(C)cc1S(=O)(=O)NC(=O)c1ccc(-n2ccc(O[C@H]3C[C@@H]4CC[C@H]3C4)n2)nc1N1C[C@@H](C)CC1(C)C"
study_target = "F508del-CFTR (Homo sapiens, UniProt P13569, DEL508-508)"
quantity_name = "EC50"
value = 150

[[record]]
molecule = "Cc1nn(C)cc1S(=O)(=O)NC(=O)c1ccc(-n2ccc(OCC3C[C@@H]4CC[C@H]3C4)n2)nc1N1C[C@@H](C)CC1(C)C (stereo partly shown)"
study_target = "F508del-CFTR (Homo sapiens, UniProt P13569, DEL508-508)"
quantity_name = "EC50"
value = 80

[[record]]
molecule = "Cc1nn(C)cc1S(=O)(=O)NC(=O)c1ccc(-n2ccc(OCC3(C(F)(F)F)CC3)n2)nc1N1CC(C)CC12CC2 (stereo not shown)"
study_target = "F508del-CFTR (Homo sapiens, UniProt P13569, DEL508-508)"
quantity_name = "EC50"
value = 390

[[record]]
molecule = "Cc1nn(C)cc1S(=O)(=O)NC(=O)c1ccc(-n2ccc(OCC3(C(F)(F)F)CC3)n2)nc1N1CC(C(C)(C)C)CC1(C)C (single isomer, unassigned) [Compound 53]"
study_target = "F508del-CFTR (Homo sapiens, UniProt P13569, DEL508-508)"
quantity_name = "EC50"
value = 390

[[record]]
molecule = "CCC1CN(c2nc(-n3ccc(OCC4(C(F)(F)F)CC4)n3)ccc2C(=O)NS(=O)(=O)c2cn(C)nc2C)C(C)(C)C1 (stereo not shown)"
study_target = "F508del-CFTR (Homo sapiens, UniProt P13569, DEL508-508)"
quantity_name = "EC50"
value = 190

